Every entry's value here was drawn from patent US6352958B1.

# System: wheat (Triticum aestivum var. Lew)
# Assay text: Postemergence herbicidal activity, wheat
# Type: in vivo
# Experimental setup: rate of application 0.3 Kg/Ha, rated after 12-17 days
Lab note: cut-off is 60%. Strictly less in Postemergence herbicidal activity (% control) WHT is true. Exactly 60% or more is false.

Some entries whose results are on file:
Input: Here's an entry: Cc1nc2c(-n3c(=O)cc(C(F)(F)F)n(C)c3=O)c(F)cc(Cl)c2[nH]1 . Is its Postemergence herbicidal activity (% control) WHT below 60%?
Output: false

Input: Here's an entry: C#CCOc1nc2c(-n3c(=O)cc(C(F)(F)F)n(C)c3=O)c(F)cc(Br)c2o1 . Is its Postemergence herbicidal activity (% control) WHT below 60%?
Output: true

Input: Here's an entry: Cn1c(C(F)(F)F)cc(=O)n(-c2ccc(Cl)c3cc(C(Br)Br)oc23)c1=O . Is its Postemergence herbicidal activity (% control) WHT below 60%?
Output: true

Input: Here's an entry: Cc1nc2c(-n3c(=O)cc(C(F)(F)F)n(C)c3=O)c(F)cc(Cl)c2o1 . Is its Postemergence herbicidal activity (% control) WHT below 60%?
Output: false

Input: Here's an entry: Cc1cc2c(Cl)cc(F)c(-n3c(=O)cc(C(F)(F)F)n(C)c3=O)c2o1 . Is its Postemergence herbicidal activity (% control) WHT below 60%?
Output: false

Now look at this entry.
Input: Here's an entry: CC(C)c1cc2c(Cl)cc(F)c(-n3c(=O)cc(C(F)(F)F)n(C)c3=O)c2o1 . Is its Postemergence herbicidal activity (% control) WHT below 60%?
Output: false

---

# System: morningglory (Ipomea lacunosa or Ipomea hederacea)
# Assay text: Preemergence herbicidal activity, morningglory
# Format: in vivo
# Experimental setup: Rate of Application 0.3 Kg/Ha, examined after 12-17 days
Measured quantity: PREEMERGENCE HERBICIDAL ACTIVITY (% CONTROL) IPOSS (%)
Output spec: scalar in %, unitless text.

Consider the worked cases shown below.
Input: Which measured PREEMERGENCE HERBICIDAL ACTIVITY (% CONTROL) IPOSS value corresponds to Cn1c(C(F)(F)F)cc(=O)n(-c2c(F)cc(Cl)c3cc(C(C)(C)O)oc23)c1=O [Compound 242] ?
Output: 100

Input: Which measured PREEMERGENCE HERBICIDAL ACTIVITY (% CONTROL) IPOSS value corresponds to CC(C)Oc1nc2c(-n3c(=O)cc(C(F)(F)F)n(C)c3=O)c(F)cc(Br)c2o1 [Compound 107] ?
Output: 100

Further cases:
Input: Which measured PREEMERGENCE HERBICIDAL ACTIVITY (% CONTROL) IPOSS value corresponds to Cn1c(C(F)(F)F)cc(=O)n(-c2c(F)cc(Cl)c3nc(Cc4ccccc4)[nH]c23)c1=O [Compound 376] ?
Output: 100

Input: Which measured PREEMERGENCE HERBICIDAL ACTIVITY (% CONTROL) IPOSS value corresponds to Cn1c(C(F)(F)F)cc(=O)n(-c2ccc(Cl)c3cc(CBr)oc23)c1=O [Compound 232] ?
Output: 80

Input: Which measured PREEMERGENCE HERBICIDAL ACTIVITY (% CONTROL) IPOSS value corresponds to CC(=O)N(C(C)=O)c1nc2c(-n3c(=O)cc(C(F)(F)F)n(C)c3=O)c(F)cc(Br)c2o1 [Compound 100] ?
Output: 100

Input: Which measured PREEMERGENCE HERBICIDAL ACTIVITY (% CONTROL) IPOSS value corresponds to CC(=O)OC(C)(C)c1cc2c(Cl)cc(F)c(-n3c(=O)cc(C(F)(F)F)n(C)c3=O)c2o1 [Compound 253] ?
Output: 100

Input: Which measured PREEMERGENCE HERBICIDAL ACTIVITY (% CONTROL) IPOSS value corresponds to Cn1c(C(F)(F)F)cc(=O)n(-c2c(F)cc(Br)c3oc(COc4ccc(Cl)cc4)nc23)c1=O [Compound 102] ?
Output: 70

---

# Tested on: soybean (Glycine max var. Winchester)
# Assay text: Postemergence herbicidal activity, soybean
# Assay type: in vivo
# Experimental setup: rate of application 0.3 Kg/Ha, rated after 12-17 days
Measured quantity: Postemergence herbicidal activity (% control) SOY (%)
Output spec: scalar in %, unitless text.

Consider the worked cases shown below.
Input: Which measured Postemergence herbicidal activity (% control) SOY value corresponds to CC(=O)OC(c1ccccc1)c1nc2c(-n3c(=O)cc(C(F)(F)F)n(C)c3=O)c(F)cc(Br)c2o1 (stereo not shown) [Compound 103] ?
Output: 90

Input: Which measured Postemergence herbicidal activity (% control) SOY value corresponds to Cn1c(C(F)(F)F)cc(=O)n(-c2ccc(Cl)c3cc(-c4ccccc4)oc23)c1=O [Compound 264] ?
Output: 50

Input: Which measured Postemergence herbicidal activity (% control) SOY value corresponds to Cn1c(C(F)(F)F)cc(=O)n(-c2c(F)cc(Cl)c3cc(CCO)oc23)c1=O [Compound 239] ?
Output: 95

Input: Which measured Postemergence herbicidal activity (% control) SOY value corresponds to CCOC(=O)c1cc2c(-n3c(=O)cc(C(F)(F)F)n(C)c3=O)c(F)cc(Cl)c2n1C [Compound 522] ?
Output: 90

Input: Which measured Postemergence herbicidal activity (% control) SOY value corresponds to CC(=O)OC(C)(C)c1nc2c(-n3c(=O)cc(C(F)(F)F)n(C)c3=O)c(F)cc(Cl)c2[nH]1 [Compound 371] ?
Output: 95

Input: Which measured Postemergence herbicidal activity (% control) SOY value corresponds to CNC(=O)OC(C)c1cc2c(Cl)cc(F)c(-n3c(=O)cc(C(F)(F)F)n(C)c3=O)c2o1 (stereo not shown) [Compound 249] ?
Output: 95

Further cases:
Input: Which measured Postemergence herbicidal activity (% control) SOY value corresponds to CC(=O)Nc1nc2c(-n3c(=O)cc(C(F)(F)F)n(C)c3=O)c(F)cc(Br)c2o1 [Compound 43] ?
Output: 80

---

# Test system: morningglory (Ipomea lacunosa or Ipomea hederacea)
# Assay text: Postemergence herbicidal activity, morningglory
# Format: in vivo
# Experimental setup: rate of application 0.3 Kg/Ha, rated after 12-17 days
Measured quantity: Postemergence herbicidal activity (% control) IPOSS (%)
Output spec: scalar in %, unitless text.

Input: Which measured Postemergence herbicidal activity (% control) IPOSS value corresponds to Cn1c(C(F)(F)F)cc(=O)n(-c2ccc(Cl)c3cc(NC(=O)OC(C)(C)C)oc23)c1=O ?
Output: 60

Input: Which measured Postemergence herbicidal activity (% control) IPOSS value corresponds to Cn1c(C(F)(F)F)cc(=O)n(-c2ccc(Cl)c3cc(C(=O)O)oc23)c1=O ?
Output: 60

Input: Which measured Postemergence herbicidal activity (% control) IPOSS value corresponds to C=CCOc1nc2c(-n3c(=O)cc(C(F)(F)F)n(C)c3=O)c(F)cc(Br)c2o1 ?
Output: 100

Input: Which measured Postemergence herbicidal activity (% control) IPOSS value corresponds to CCCCc1cc2c(Cl)ccc(-n3c(=O)cc(C(F)(F)F)n(C)c3=O)c2o1 ?
Output: 75

Input: Which measured Postemergence herbicidal activity (% control) IPOSS value corresponds to CCCC(C)c1cc2c(Cl)cc(F)c(-n3c(=O)cc(C(F)(F)F)n(C)c3=O)c2o1 (stereo not shown) ?
Output: 100

Input: Which measured Postemergence herbicidal activity (% control) IPOSS value corresponds to CCOC(=O)c1cc2c(N3C(=O)C4=C(CCCC4)C3=O)ccc(Cl)c2[nH]1 ?
Output: 40

Input: Which measured Postemergence herbicidal activity (% control) IPOSS value corresponds to CC(OC(=O)c1ccccc1)c1cc2c(Cl)cc(F)c(-n3c(=O)cc(C(F)(F)F)n(C)c3=O)c2o1 (stereo not shown) ?
Output: 100

Input: Which measured Postemergence herbicidal activity (% control) IPOSS value corresponds to Cn1c(C(F)(F)F)cc(=O)n(-c2ccc(Cl)c3cc(CBr)oc23)c1=O ?
Output: 80

Input: Which measured Postemergence herbicidal activity (% control) IPOSS value corresponds to CC(F)c1cc2c(Cl)cc(F)c(-n3c(=O)cc(C(F)(F)F)n(C)c3=O)c2o1 (stereo not shown) ?
Output: 100

Input: Which measured Postemergence herbicidal activity (% control) IPOSS value corresponds to CC(=O)OC(C)c1cc2c(Cl)cc(F)c(-n3c(=O)cc(C(F)(F)F)n(C)c3=O)c2o1 (stereo not shown) ?
Output: 100

Further cases:
Input: Which measured Postemergence herbicidal activity (% control) IPOSS value corresponds to Cn1c(C(F)(F)F)cc(=O)n(-c2ccc(Cl)c3cc(C(C)(C)O)oc23)c1=O ?
Output: 100

Input: Which measured Postemergence herbicidal activity (% control) IPOSS value corresponds to CON=Cc1cc2c(Cl)ccc(-n3c(=O)cc(C(F)(F)F)n(C)c3=O)c2o1 ?
Output: 90

Input: Which measured Postemergence herbicidal activity (% control) IPOSS value corresponds to CC(O)Cc1cc2c(Cl)cc(F)c(-n3c(=O)cc(C(F)(F)F)n(C)c3=O)c2o1 (stereo not shown) ?
Output: 100

Input: Which measured Postemergence herbicidal activity (% control) IPOSS value corresponds to Cn1c(C(F)(F)F)cc(=O)n(-c2ccc(Cl)c3cc(C(C)(C)C)oc23)c1=O ?
Output: 95

Input: Which measured Postemergence herbicidal activity (% control) IPOSS value corresponds to CC(O)c1cc2c(Cl)cc(F)c(-n3c(=O)cc(C(F)(F)F)n(C)c3=O)c2o1 (stereo not shown) ?
Output: 100

Input: Which measured Postemergence herbicidal activity (% control) IPOSS value corresponds to CC(c1ccccc1)c1nc2c(Cl)cc(F)c(-n3c(=O)cc(C(F)(F)F)n(C)c3=O)c2[nH]1 (stereo not shown) ?
Output: 100
